Where do these numbers come from? They come from patent US20230340011A1.

- target-desc: SREBP-2 (Homo sapiens (Human))
- measurement-protocol: In vitro assay SREBP-2: PathHunter U2OS SREBP-2 Nuclear Translocation Cell Line, U18666A-stimulated
- Format: cell-based
- experimental-parameters: PathHunter U2OS SREBP-2 nuclear translocation cells, U18666A 10 μM, overnight (16 hours)
pIC50: −log10 of the molar value.
endpoint: pIC50

Worked set:
compound	reported-value
C[C@H](CCC(=O)N1CCN(c2cc(O)ncn2)CC1)[C@H]1CC[C@H]2[C@@H]3CC=C4C[C@@H](O)CC[C@]4(C)[C@H]3CC[C@]12C [Example 631]	> 6.60
CCC1(O)CCN(C(=O)CCC[C@H]2CC[C@H]3[C@@H]4CC=C5C[C@@H](O)CC[C@]5(C)[C@H]4CC[C@]23C)CC1 [Example 370]	6.00 to 6.60
C[C@H](COc1ccc(CO)cn1)[C@H]1CC[C@H]2[C@@H]3CC=C4C[C@@H](O)CC[C@]4(C)[C@H]3CC[C@]12C [Example 445]	6.00 to 6.60

Prompt line: Look up pIC50: C[C@H](CCC(=O)N1CCN(c2ccnc(N(C)C)n2)CC1)[C@H]1CC[C@H]2[C@@H]3CC=C4C[C@@H](O)CC[C@]4(C)[C@H]3CC[C@]12C [Example 562]
Response line: > 6.60

Prompt line: Fill blank: measured pIC50 of the compound C[C@H](CCC(=O)N1CCC(CN2CCOC(C)(C)C2=O)CC1)[C@H]1CC[C@H]2[C@@H]3CC=C4C[C@@H](O)CC[C@]4(C)[C@H]3CC[C@]12C [Example 522] is ____.
Response line: > 6.60

Prompt line: Which pIC50 is listed for CNC(=O)c1ccncc1O[C@@H](C)[C@H]1CC[C@H]2[C@@H]3CC=C4C[C@@H](O)CC[C@]4(C)[C@H]3CC[C@]12C [Example 265] ?
Response line: 5.00 to 6.00
